Reported relative viability values are given for each entry in this list.
System: NCI-H1563
EXPERIMENT NOTES: relative viability (nuclei count vs DMSO), 5 days (fraction); higher = more cells survive
APPLIED CONDITIONS: first compound 6.325 µM

The examples below pair each entry with its known result.
COCC1(CO)C(=O)C2CCN1CC2 (configuration not stated) [PRIMA-1MET] + COc1cc2c(Oc3ccc(NC(=O)C4(C(=O)Nc5ccc(F)cc5)CC4)cc3F)ccnc2cc1OCCCN1CCOCC1 [Foretinib] (partner 0.25 µM) :: 0.911
COCC1(CO)C(=O)C2CCN1CC2 (configuration not stated) [PRIMA-1MET] + Cc1nc(NC(=O)N2CCC[C@H]2C(N)=O)sc1-c1ccnc(C(C)(C)C(F)(F)F)c1 [Alpelisib] (partner 2 µM) :: 1.05
COCC1(CO)C(=O)C2CCN1CC2 (configuration not stated) [PRIMA-1MET] + CCNC(=O)c1noc(-c2cc(C(C)C)c(O)cc2O)c1-c1ccc(CN2CCOCC2)cc1 [Luminespib] (partner 0.01 µM) :: 0.529
COCC1(CO)C(=O)C2CCN1CC2 (configuration not stated) [PRIMA-1MET] + N=C(N)NC(=N)NCCc1ccccc1 [Phenformin] (partner 250 µM) :: 0.719
COCC1(CO)C(=O)C2CCN1CC2 (configuration not stated) [PRIMA-1MET] + Nc1nc2[nH]cc(CCc3ccc(C(=O)N[C@@H](CCC(=O)O)C(=O)O)cc3)c2c(=O)[nH]1 [Pemetrexed] (partner 0.2 µM) :: 0.77

## Input Dear colleague, I am looking for the recorded relative viability of the following compound: COCC1(CO)C(=O)C2CCN1CC2 (configuration not stated) [PRIMA-1MET] + C[C@@H](Oc1cc(-c2cnn(C3CCNCC3)c2)cnc1N)c1c(Cl)ccc(F)c1Cl [Crizotinib] (partner 1 µM)
## Output 0.843

## Input For the compound COCC1(CO)C(=O)C2CCN1CC2 (configuration not stated) [PRIMA-1MET] + CC(C)C[C@H](NC(=O)[C@H](Cc1ccccc1)NC(=O)c1cnccn1)B(O)O [Bortezomib] (partner 0.002 µM) , what relative viability is on record?
## Output 1.15

----------
Test system: NCI-H1395
EXPERIMENT NOTES: relative viability (nuclei count vs DMSO), 5 days (fraction); higher = more cells survive
APPLIED CONDITIONS: first compound 0.253 µM
VALUE TYPE: relative viability

COc1nc(C)cnc1NS(=O)(=O)c1cccnc1-c1ccc(-c2nnco2)cc1 [Zibotentan] + CC1(C)CCC(c2ccc(Cl)cc2)=C(CN2CCN(c3ccc(C(=O)NS(=O)(=O)c4ccc(N[C@H](CCN5CCOCC5)CSc5ccccc5)c(S(=O)(=O)C(F)(F)F)c4)cc3)CC2)C1 [Navitoclax] (partner 0.5 µM) :: 1.03
O=c1cc(-c2cccc3c2Sc2ccccc2S3)oc(N2CCOCC2)c1 + CS(=O)(=O)CCNCc1ccc(-c2ccc3ncnc(Nc4ccc(OCc5cccc(F)c5)c(Cl)c4)c3c2)o1 [Lapatinib] (partner 2 µM) :: 1.04
O=c1cc(-c2cccc3c2Sc2ccccc2S3)oc(N2CCOCC2)c1 + Nc1ncn([C@H]2C[C@H](O)[C@@H](CO)O2)c(=O)n1 [Decitabine] (partner 2 µM) :: 0.825

## Input Request body: readout relative viability, system NCI-H1395, query O=c1cc(-c2cccc3c2Sc2ccccc2S3)oc(N2CCOCC2)c1 + O=C(c1cc(Cc2n[nH]c(=O)c3ccccc23)ccc1F)N1CCN(C(=O)C2CC2)CC1 [Olaparib] (partner 8 µM) . Return the value.
## Output 0.416

## Input What is its relative viability for NCI-H1395? Entry: O=c1cc(-c2cccc3c2Sc2ccccc2S3)oc(N2CCOCC2)c1 + O=C(CCCCCCC(=O)Nc1ccccc1)NO [Vorinostat] (partner 1 µM)
## Output 0.625

## Input What relative viability appears in the records for this compound with NCI-H1395? COc1nc(C)cnc1NS(=O)(=O)c1cccnc1-c1ccc(-c2nnco2)cc1 [Zibotentan] + COc1cccc2cc(-c3nc([C@H]4CC[C@H](C(=O)O)CC4)n4ncnc(N)c34)[nH]c12 [OSI-027] (partner 0.5 µM)
## Output 0.633

## Input Query the reported relative viability for NCI-H1395; item: COc1nc(C)cnc1NS(=O)(=O)c1cccnc1-c1ccc(-c2nnco2)cc1 [Zibotentan] + CS(=O)(=O)N1CCN(Cc2cc3nc(-c4cccc5[nH]ncc45)nc(N4CCOCC4)c3s2)CC1 [Pictilisib] (partner 1 µM)
## Output 0.546

## Input Observed relative viability on NCI-H1395 for COc1nc(C)cnc1NS(=O)(=O)c1cccnc1-c1ccc(-c2nnco2)cc1 [Zibotentan] + Nc1ncn([C@H]2C[C@H](O)[C@@H](CO)O2)c(=O)n1 [Decitabine] (partner 2 µM) , please.
## Output 0.68

## Input What value of relative viability on NCI-H1395 does O=c1cc(-c2cccc3c2Sc2ccccc2S3)oc(N2CCOCC2)c1 + Cc1nc(NC(=O)N2CCC[C@H]2C(N)=O)sc1-c1ccnc(C(C)(C)C(F)(F)F)c1 [Alpelisib] (partner 2 µM) have?
## Output 1.13

## Input Hi! What's the reported relative viability for O=c1cc(-c2cccc3c2Sc2ccccc2S3)oc(N2CCOCC2)c1 + N=C(N)NC(=N)NCCc1ccccc1 [Phenformin] (partner 250 µM) on NCI-H1395?
## Output 0.393

## Input Find the measured relative viability: item COc1nc(C)cnc1NS(=O)(=O)c1cccnc1-c1ccc(-c2nnco2)cc1 [Zibotentan] + O=C(CCCCCCC(=O)Nc1ccccc1)NO [Vorinostat] (partner 1 µM) , target or system NCI-H1395.
## Output 0.502

## Input Form: Entry = O=c1cc(-c2cccc3c2Sc2ccccc2S3)oc(N2CCOCC2)c1 + COc1cc2c(Oc3ccc(NC(=O)C4(C(=O)Nc5ccc(F)cc5)CC4)cc3F)ccnc2cc1OCCCN1CCOCC1 [Foretinib] (partner 0.25 µM) | System = NCI-H1395 | relative viability = ____
## Output 0.887

----------
Tested on: NCI-H23
EXPERIMENT NOTES: relative viability (nuclei count vs DMSO), 5 days (fraction); higher = more cells survive
APPLIED CONDITIONS: first compound 0.3162 µM
API: label(entry) gives Met if the entry's relative viability is strictly smaller than 0.8; on equality or larger values it gives Not met.

Consider the following illustrative entries.
O=c1cc(N2CCOCC2)oc2c(-c3cccc4c3sc3ccccc34)cccc12 + C[C@]1(O)C[C@@H](c2nc(-c3ccc4ccc(-c5ccccc5)nc4c3)c3c(N)nccn32)C1 [Linsitinib] (partner 1 µM) :: Met
O=c1cc(N2CCOCC2)oc2c(-c3cccc4c3sc3ccccc34)cccc12 + CC(C)C[C@H](NC(=O)[C@H](Cc1ccccc1)NC(=O)c1cnccn1)B(O)O [Bortezomib] (partner 0.002 µM) :: Not met
CCN(CC)CCCCNc1ncc2cc(-c3cc(OC)cc(OC)c3)c(NC(=O)NC(C)(C)C)nc2n1 + CS(=O)(=O)CCNCc1ccc(-c2ccc3ncnc(Nc4ccc(OCc5cccc(F)c5)c(Cl)c4)c3c2)o1 [Lapatinib] (partner 2 µM) :: Not met
O=c1cc(N2CCOCC2)oc2c(-c3cccc4c3sc3ccccc34)cccc12 + Cc1cc(Nc2cc(N3CCN(C)CC3)nc(Sc3ccc(NC(=O)C4CC4)cc3)n2)n[nH]1 [Tozasertib] (partner 0.1 µM) :: Met
O=c1cc(N2CCOCC2)oc2c(-c3cccc4c3sc3ccccc34)cccc12 + C[C@@H](Oc1cc(-c2cnn(C3CCNCC3)c2)cnc1N)c1c(Cl)ccc(F)c1Cl [Crizotinib] (partner 1 µM) :: Met

## Input relative viability under 0.8? Item: CCN(CC)CCCCNc1ncc2cc(-c3cc(OC)cc(OC)c3)c(NC(=O)NC(C)(C)C)nc2n1 + Cc1nc(NC(=O)N2CCC[C@H]2C(N)=O)sc1-c1ccnc(C(C)(C)C(F)(F)F)c1 [Alpelisib] (partner 2 µM)
## Output Met

## Input Does the reported relative viability of CCN(CC)CCCCNc1ncc2cc(-c3cc(OC)cc(OC)c3)c(NC(=O)NC(C)(C)C)nc2n1 + CC(C)C[C@H](NC(=O)[C@H](Cc1ccccc1)NC(=O)c1cnccn1)B(O)O [Bortezomib] (partner 0.002 µM) stay below 0.8?
## Output Not met

## Input Please let me know if CCN(CC)CCCCNc1ncc2cc(-c3cc(OC)cc(OC)c3)c(NC(=O)NC(C)(C)C)nc2n1 + C[C@@H](Oc1cc(-c2cnn(C3CCNCC3)c2)cnc1N)c1c(Cl)ccc(F)c1Cl [Crizotinib] (partner 1 µM) shows relative viability below 0.8.
## Output Met

## Input I wonder whether CCN(CC)CCCCNc1ncc2cc(-c3cc(OC)cc(OC)c3)c(NC(=O)NC(C)(C)C)nc2n1 + O=C(c1cc(Cc2n[nH]c(=O)c3ccccc23)ccc1F)N1CCN(C(=O)C2CC2)CC1 [Olaparib] (partner 8 µM) has relative viability below 0.8. Can you tell?
## Output Met

## Input is_below(relative viability, 0.8) for O=c1cc(N2CCOCC2)oc2c(-c3cccc4c3sc3ccccc34)cccc12 + COc1cccc2cc(-c3nc([C@H]4CC[C@H](C(=O)O)CC4)n4ncnc(N)c34)[nH]c12 [OSI-027] (partner 0.5 µM) ?
## Output Met

## Input Please determine if CCN(CC)CCCCNc1ncc2cc(-c3cc(OC)cc(OC)c3)c(NC(=O)NC(C)(C)C)nc2n1 + CC(=O)c1c(C)c2cnc(Nc3ccc(N4CCNCC4)cn3)nc2n(C2CCCC2)c1=O [Palbociclib] (partner 0.5 µM) is below 0.8 in terms of relative viability.
## Output Met

## Input Below 0.8 on relative viability? Entry CCN(CC)CCCCNc1ncc2cc(-c3cc(OC)cc(OC)c3)c(NC(=O)NC(C)(C)C)nc2n1 + COc1cc2c(Oc3ccc(NC(=O)C4(C(=O)Nc5ccc(F)cc5)CC4)cc3F)ccnc2cc1OCCCN1CCOCC1 [Foretinib] (partner 0.25 µM)
## Output Not met
